species on record: Cavia porcellus; experiment: Negative inotropy measured as the concentration required to depress contraction in the isolated Langendorff-perfused guinea pig heart by 25%; assay type: functional
assay endpoint: -Log IC25
Lab note: jot down the number only; don't add units.

CCO/C(O)=C1\C(COCCN(C)Cc2ccccc2)=NC(C)=C(C(=O)OC)C1c1ccccc1Cl (stereo not given) = 7.3
CCO/C(O)=C1\C(COCCN)=NC(C)=C(C(=O)OC)C1c1cccc(C(F)(F)F)c1Cl (stereo not given) = 7.3
CCO/C(O)=C1\C(COCCN(C)C)=NC(C)=C(C(=O)OC)C1c1ccncc1 (stereo not given) = 6

// CCO/C(O)=C1\C(COCCN(C)C)=NC(C)=C(C(=O)OC)C1c1ccccc1Cl (stereo not given) : -Log IC25 value = 7.5

Notebook: CCO/C(O)=C1\C(COCCN2CCN(C)CC2)=NC(C)=C(C(=O)OC)C1c1ccccc1Cl (stereo not given) , -Log IC25 read as 7.9

* * *

Examples of compounds with documented -Log IC25 follow.
species on record: Cavia porcellus; assay: Negative inotropy measured as the concentration required to depress contraction in the isolated Langendorff-perfused guinea pig heart by 25%; type: functional
Would you mind answering with just the numeric figure?

CCO/C(O)=C1\C(COCCN)=NC(C)=C(C(=O)OC)C1c1cccc(Cl)c1Cl (centres undefined) = 6.6
CCO/C(O)=C1\C(COCCN2CCC(N(C)C)CC2)=NC(C)=C(C(=O)OC)C1c1ccccc1Cl (centres undefined) = 7.1

The compound listed as CCO/C(O)=C1\C(COCCN(C)C)=NC(C)=C(C(=O)OC)C1c1cccs1 (centres undefined) shows -Log IC25 equal to 6.6

According to the records, this compound CCO/C(O)=C1\C(COCCN2CCOCC2)=NC(C)=C(C(=O)OC)C1c1ccccc1Cl (centres undefined) displays -Log IC25 of 7.5

Recorded -Log IC25 (compound CCO/C(O)=C1\C(COCCN)=NC(C)=C(C(=O)OC)C1c1ccc(Cl)cc1 (centres undefined) ): 6

Recorded result, CCO/C(O)=C1\C(COCCCN(C)C)=NC(C)=C(C(=O)OC)C1c1ccccc1Cl (centres undefined) , -Log IC25: 8.6

Reported -Log IC25 for CCO/C(O)=C1\C(COCCCN2CCN(C)CC2)=NC(C)=C(C(=O)OC)C1c1ccccc1Cl (centres undefined) was 8.2

* * *

Decrease: recorded values
tested on: Canis familiaris; assay: Percent decrease in coronary vascular resistance in dogs after intravenous dosage of 450 ug/kg compound; type: functional, Canis lupus familiaris
Number only, in %; omit the unit.

Some compounds with known Decrease results, for comparison:
CCO/C(O)=C1\C(COCCN(C)C)=NC(C)=C(C(=O)OC)C1c1ccccc1Cl (centres undefined) = 68.9
CCO/C(O)=C1\C(COCCNC)=NC(C)=C(C(=O)OC)C1c1ccccc1Cl (centres undefined) = 73.8
CCO/C(O)=C1\C(COCCN)=NC(C)=C(C(=O)OC)C1c1cccc(C(F)(F)F)c1Cl (centres undefined) = 75.7

Then this compound:
Reported Decrease of CCOC(=O)C1=C(COCCN)NC(C)=C(C(=O)OC)C1c1ccccc1Cl (stereo in doubt; 17) : 69.5

* * *

species on record: Cavia porcellus; test: Negative inotropy measured as the concentration required to depress contraction in the isolated Langendorff-perfused guinea pig heart by 25%; format: functional
A collection of compounds and their measured -Log IC25
// response body must contain only the number

Some compounds with known -Log IC25 results, for comparison:
CCO/C(O)=C1\C(COCCN)=NC(C)=C(C(=O)OC)C1c1ccccc1F (stereo not given) = 6.6
CCO/C(O)=C1\C(COCCN(C)C)=NC(C)=C(C(=O)OC)C1c1cccc2ccccc12 (stereo not given) = 7.7
CCO/C(O)=C1\C(COCCNC)=NC(C)=C(C(=O)OC)C1c1ccccc1C (stereo not given) = 7.2

Memo: CCO/C(O)=C1\C(COCCN2CCCC2)=NC(C)=C(C(=O)OC)C1c1ccccc1Cl (stereo not given) , reported -Log IC25: 7.7

# -Log IC25 (compound: CCO/C(O)=C1\C(COCCN2CCN(C(C)C)CC2)=NC(C)=C(C(=O)OC)C1c1ccccc1Cl (stereo not given) ) is 8

* * *

species on record: Cavia porcellus; assay: Negative inotropy measured as the concentration required to depress contraction in the isolated Langendorff-perfused guinea pig heart by 25%; format: functional
assay endpoint: -Log IC25
Please respond with just the number, no unit label.

Recorded results for 2 compounds are shown here.
CCO/C(O)=C1\C(COCCN2CCN(CCN(CC)CC)CC2)=NC(C)=C(C(=O)OC)C1c1ccccc1Cl (configuration not stated) = 7.1
CCO/C(O)=C1\C(COCCN)=NC(C)=C(C(=O)OC)C1c1cccc(Cl)c1 (configuration not stated) = 6.6

In plain terms, CCO/C(O)=C1\C(COCCNC)=NC(C)=C(C(=O)OC)C1c1ccccc1Cl (configuration not stated) has a documented -Log IC25 of 7.5

Lab note: measured -Log IC25 of CCO/C(O)=C1\C(COCCNC)=NC(C)=C(C(=O)OC)C1c1ccccc1OC (configuration not stated) was 7.1

Record CCO/C(O)=C1\C(COCCN2CCN(Cc3ccc(Cl)cc3)CC2)=NC(C)=C(C(=O)OC)C1c1ccccc1Cl (configuration not stated) . Reported -Log IC25: 7.4

Data point: CCO/C(O)=C1\C(COCCN)=NC(C)=C(C(=O)OC)C1c1ccccc1 (configuration not stated) ; -Log IC25 = 6.2

Looking up CCO/C(O)=C1\C(COCCN2CCNCC2)=NC(C)=C(C(=O)OC)C1c1ccccc1Cl (configuration not stated) , I see its -Log IC25 listed as 7.4

* * *

species on record: Cavia porcellus; test: Negative inotropy measured as the concentration required to depress contraction in the isolated Langendorff-perfused guinea pig heart by 25%; format: functional
assay endpoint: -Log IC25
Would you mind answering with just the numeric figure?

COC(=O)C1=C(C)NC(C)=C(C(=O)OC)C1c1ccccc1[N+](=O)[O-] = 7.5
CCO/C(O)=C1\C(COCCN(C)C)=NC(C)=C(C(=O)OC)C1c1ccccc1C(F)(F)F (stereo not given) = 7.6
CCO/C(O)=C1\C(COCCN(C)C)=NC(C)=C(C(=O)OC)C1c1cccc([N+](=O)[O-])c1 (stereo not given) = 7.1
CCO/C(O)=C1\C(COCCNC)=NC(C)=C(C(=O)OC)C1c1c(F)cccc1Cl (stereo not given) = 7.6

Per the record, CCO/C(O)=C1\C(COCCN2CCN(c3ccc(F)cc3)CC2)=NC(C)=C(C(=O)OC)C1c1ccccc1Cl (stereo not given) has -Log IC25 of 7.3
